Please go through the items and note down their Live Virus Neutralization IC50.
target: spike protein of SARS-CoV-2 clinical isolate USA/WA/1/2020 (live virus) (SARS-CoV-2, UniProt P0DTC2 14-1273); test: cell-based or functional assay
Value expressed in mg/L; do not type the unit.

Prompt: Look up Live Virus Neutralization IC50 for this binder: anti-SARS-CoV-2 antibody 1075 (antibody, V domains shown) VH: QVQLVQSGAEVKKPGASVKVSCKVSGYTLIELSMHWVRQAPGKGLEWMGGFDPEDGETIYAQKFQGRVTMTEDTSTDTAYMELSSLRSEDTAVYYCATEWAYYGSGSYLGYWGQGTLVTVSS VL: EIVMTQSPATLSVSPGERATLSCRASQSVSSNLAWFQQKPGQAPRLLIYGASTRVTVIPARFSGSGSGTEFTLTISSLQSEDFAVYYCQQYNNWPRTFGQGTKVEIK
Response: 0.011

Prompt: Item: anti-SARS-CoV-2 antibody 1193 (antibody, V domains shown) VH: EVQLVESGGGLVQPGGSLRLSCAASGFTFSSYYMNWVRQAPGKGLEWVSYISSGSSIIYYADSVKGRFTISRDNAKNSLYLQMNSLRDEDTAVYYCARDSPLRYFDWQLGGGFDYWGQGTLVTVSS VL: QSALTQPASVSGSPGQSITISCTGTSSDVGGYNYVSWYQQHPGKAPKLMIYDVSNRPSGVSNRFSGSKSGNTASLTISGLQAEDEADYYCSSYTSSSLWVFGGGTKLTVL
Response: 0.31

Prompt: Item: anti-SARS-CoV-2 antibody 1091 (antibody, V domains shown) VH: EVQLVESGGGLVKPGGSLRLSCAASGFPFITYSMNWVRQAPGKGLEWVSSISRNSDYIYYADSVRGRVTISRDNAENSLYLQMHSLRAEDTAVYYCARDVVRSGNYYIPRHGMDVWGRGTTVTVSS VL: QSVLTQPPSASGTPGQRVTISCSGTSSNIGSNTVNWYQQLPETAPKLLIYGTDQRPSGVPDRFSGSKSGTSASLAISRLQSEDEADYYCATRDDSLSGPVFGGGTQLTVL
Response: 0.074

Prompt: Item: anti-SARS-CoV-2 antibody 1037 (antibody, V domains shown) VH: QITLKESGPTLVKPTQTLTLTCTFSGFSLSTSGVGVGWIRQPPGKALEWLALIYWDDDKRYSPSLKSRLTITKDTSKNQVVLTMTNMDPVDTATYYCAHHTITRINDYWGQGTLVTVSS VL: QSALTQPASVSGSPGQSITISCTATSSDVGAYNYVSWYQQHPGKAPKLMIYDVSKRPSGVSNRFSGSKSGNTASLTISGLQAEDEADYYCSSYTSSSTVFGGGTKLTVL
Response: 0.009

Prompt: Item: anti-SARS-CoV-2 antibody 1027 (antibody, V domains shown) VH: EVQLVESGGGLVQPGGSLRLSCAASGFTVSSNYMSWVRQAPGKGLEWVSIIYSGGSTFYADSVKGRFTISRDSSKNTLYLQMSSLRAEDTAVYYCARDLDYYGMDVWGQGTTVTVSS VL: DIQLTQSPSFLSAPVGDRVTITCRASQGISSYLAWYQQKPGKAPKLLIYGASTLQSGVPSRFSGSGSGTEFTLTISSLQPEDFATYYCQQLNSYQRFTFGPGTKVEIK
Response: 0.005
